Sourced from patent US11104680B2

# studySystem: PDE1B (Homo sapiens (Human), UniProt Q01064)
# Sequence (Q01064 whole entry): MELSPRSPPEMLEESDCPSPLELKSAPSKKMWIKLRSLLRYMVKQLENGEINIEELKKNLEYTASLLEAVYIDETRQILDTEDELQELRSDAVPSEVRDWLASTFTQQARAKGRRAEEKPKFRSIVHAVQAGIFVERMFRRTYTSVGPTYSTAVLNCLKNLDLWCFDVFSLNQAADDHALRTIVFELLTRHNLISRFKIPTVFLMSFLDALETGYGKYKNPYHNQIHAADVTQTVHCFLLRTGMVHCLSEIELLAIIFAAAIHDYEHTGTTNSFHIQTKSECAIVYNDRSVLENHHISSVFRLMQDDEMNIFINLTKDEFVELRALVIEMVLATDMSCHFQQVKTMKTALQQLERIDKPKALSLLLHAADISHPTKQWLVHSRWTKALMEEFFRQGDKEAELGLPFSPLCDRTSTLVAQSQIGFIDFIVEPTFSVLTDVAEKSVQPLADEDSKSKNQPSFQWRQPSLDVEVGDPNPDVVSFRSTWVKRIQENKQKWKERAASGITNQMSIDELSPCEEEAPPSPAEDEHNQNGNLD
measurementLabel: IC50 (µM)
Numbers only, in µM.

Consider the worked cases shown below.
molecule: COc1ccc(Cn2c(C)cc3c(cnn3C3CC3)c2=O)cc1
studySystem: PDE1B (Homo sapiens (Human), UniProt Q01064)
IC50 [µM]: 0.255
--
molecule: COc1ccc(Cn2c(C)cc3c(cnn3C3CCOC3)c2=O)cc1 (stereo not drawn)
studySystem: PDE1B (Homo sapiens (Human), UniProt Q01064)
IC50 [µM]: 0.569

Please state, for each entry, its recorded IC50.
1. CCn1ncc2c(=O)n(Cc3ccc(OC)cc3)c(C)cc21
2. CCCn1ncc2c(=O)n(Cc3ccc(OC)cc3)c(C)cc21
3. O=c1c2cnn(C3CCOCC3)c2nc(Cc2ccccc2)n1CC1CCCCC1
4. COc1ccc(Cn2c(C)nc3c(cnn3C3CCOCC3)c2=O)cc1

Result:
1: 0.329; 2: 0.082; 3: 0.32; 4: 0.062

Please state, for each entry, its recorded IC50.
1. COc1ccc(Cn2c(C)cc3c(cnn3[C@@H]3CCO[C@@H]3C)c2=O)cc1 (relative stereo)
2. Cc1cc2c(cnn2C2CCOCC2)c(=O)n1Cc1cccc(Cl)c1
3. Cc1cc2c(cnn2C2CCOCC2)c(=O)n1Cc1ccc(F)cc1

Result:
[0.179, 0.413, 0.258]

###

# studySystem: PDE1A (Homo sapiens (Human), UniProt P54750)
# Sequence (P54750 whole entry): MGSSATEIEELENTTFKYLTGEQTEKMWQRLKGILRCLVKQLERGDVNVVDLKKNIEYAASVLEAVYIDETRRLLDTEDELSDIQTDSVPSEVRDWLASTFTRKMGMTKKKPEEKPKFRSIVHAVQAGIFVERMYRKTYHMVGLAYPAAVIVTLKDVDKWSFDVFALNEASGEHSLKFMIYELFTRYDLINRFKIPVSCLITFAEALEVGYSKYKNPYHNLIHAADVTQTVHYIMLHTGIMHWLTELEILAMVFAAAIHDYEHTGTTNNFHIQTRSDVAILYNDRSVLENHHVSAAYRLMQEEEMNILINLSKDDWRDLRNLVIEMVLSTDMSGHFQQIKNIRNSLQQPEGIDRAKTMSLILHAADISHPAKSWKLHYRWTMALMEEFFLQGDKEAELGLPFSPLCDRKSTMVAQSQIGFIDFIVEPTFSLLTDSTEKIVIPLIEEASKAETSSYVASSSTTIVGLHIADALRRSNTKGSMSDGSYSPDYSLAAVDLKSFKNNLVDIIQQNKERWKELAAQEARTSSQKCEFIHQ
Field: label. Allowed values: Criterion met (IC50 < 300 nM) or Criterion not met (IC50 >= 300 nM).

chemSmiles: COCc1nc2c(cnn2C2CCOCC2)c(=O)n1Cc1ccc(OC)cc1
assignedClass: Criterion not met
--
chemSmiles: COc1ccc(Cn2c(C)cc3c(cnn3C3CC3)c2=O)cc1
assignedClass: Criterion not met
--
chemSmiles: COc1ccc(Cn2c(C)nc3c(cnn3C3CCOCC3)c2=O)cc1
assignedClass: Criterion met
--
chemSmiles: COc1ccc(Cn2c(C(C)C)nc3c(cnn3C3CCOCC3)c2=O)cc1
assignedClass: Criterion not met

Q: Hello, I'm reviewing records and need to know if IC50 of Cc1cc2c(cnn2C2CCOCC2)c(=O)n1Cc1ccc2c(c1)OCO2 is below 300 nM. Could you check?
Result: Criterion not met

Q: Hello, I'm reviewing records and need to know if IC50 of Cc1nc2c(cnn2C2CCOCC2)c(=O)n1CC1CCCCC1 is below 300 nM. Could you check?
Result: Criterion met

Q: Hello, I'm reviewing records and need to know if IC50 of Cc1cc2c(cnn2C2CCOCC2)c(=O)n1Cc1ccccc1F is below 300 nM. Could you check?
Result: Criterion not met

Q: Hello, I'm reviewing records and need to know if IC50 of CCc1nc2c(cnn2C2CCOCC2)c(=O)n1Cc1ccc(OC)cc1 is below 300 nM. Could you check?
Result: Criterion met

Q: Hello, I'm reviewing records and need to know if IC50 of CCCn1ncc2c(=O)n(Cc3ccc(OC)cc3)c(C)nc21 is below 300 nM. Could you check?
Result: Criterion met

###

# studySystem: PDE1C (Homo sapiens (Human), UniProt Q14123)
# Sequence (Q14123 whole entry): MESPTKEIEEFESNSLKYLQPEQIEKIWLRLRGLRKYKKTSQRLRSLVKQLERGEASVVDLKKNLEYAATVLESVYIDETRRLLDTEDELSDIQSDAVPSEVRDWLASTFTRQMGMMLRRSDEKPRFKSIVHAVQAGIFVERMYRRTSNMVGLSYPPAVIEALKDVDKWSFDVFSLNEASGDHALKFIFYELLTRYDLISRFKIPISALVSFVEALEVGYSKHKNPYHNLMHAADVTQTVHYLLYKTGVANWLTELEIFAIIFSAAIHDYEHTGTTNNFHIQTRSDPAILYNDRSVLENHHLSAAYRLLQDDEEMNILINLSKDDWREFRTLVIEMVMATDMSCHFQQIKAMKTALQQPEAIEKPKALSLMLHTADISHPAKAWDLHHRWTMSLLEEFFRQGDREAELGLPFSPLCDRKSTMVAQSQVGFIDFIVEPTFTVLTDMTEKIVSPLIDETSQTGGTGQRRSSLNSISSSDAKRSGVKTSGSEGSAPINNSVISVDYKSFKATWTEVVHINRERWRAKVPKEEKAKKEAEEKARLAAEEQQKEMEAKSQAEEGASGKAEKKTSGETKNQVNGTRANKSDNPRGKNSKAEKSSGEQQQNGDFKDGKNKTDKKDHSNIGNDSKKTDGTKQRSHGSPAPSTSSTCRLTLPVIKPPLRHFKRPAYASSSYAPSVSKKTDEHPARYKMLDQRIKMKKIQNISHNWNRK
Would you mind telling me the reported pIC50 of each entry?
Answers are plain numbers, as −log10 of the molar value.

Consider the worked cases shown below.
compound: CCCn1ncc2c(=O)n(Cc3ccc(OC)cc3)c(C)nc21 [Example 4]
measuredValue: 7.14
//
compound: COCc1nc2c(cnn2C2CCOCC2)c(=O)n1Cc1ccc(OC)cc1 [Example 7]
measuredValue: 6.46
//
compound: Cc1ccc(Cn2c(C)cc3c(cnn3C3CCOCC3)c2=O)cc1 [Example 16]
measuredValue: 6.30
//
compound: Cc1cc2c(cnn2C2CCOCC2)c(=O)n1Cc1cccc(Cl)c1 [Example 14]
measuredValue: 7.02
//
compound: COc1ccc(Cn2c(C)cc3c(cnn3C(C)C)c2=O)cc1 [Example 21]
measuredValue: 6.87
//
compound: Cc1cc2c(cnn2C2CCOCC2)c(=O)n1Cc1ccccc1 [Example 13]
measuredValue: 6.87
//
compound: Cc1cc2c(cnn2C2CCOCC2)c(=O)n1Cc1ccc(F)cc1 [Example 15]
measuredValue: 6.69
//
compound: CCCn1ncc2c(=O)n(CC3CCCCC3)c(C)nc21 [Example 5]
measuredValue: 7.44

Please state, for each entry, its recorded pIC50.
1. COc1ccc(Cn2c(C)cc3c(cnn3C3(C)CCOCC3)c2=O)cc1 [Example 29]
2. COc1ccc(Cn2c(C)cc3c(cnn3[C@@H]3CCO[C@H]3C)c2=O)cc1 (relative stereo) [Example 26]
3. CCn1ncc2c(=O)n(Cc3ccc(OC)cc3)c(C)cc21 [Example 24]
4. COc1ccc(Cn2c(C)cc3c(cnn3C3CC3)c2=O)cc1 [Example 23]
5. COc1ccc(Cn2c(C)nc3c(cnn3C3CCOCC3)c2=O)cc1 [Example 2]

Result:
[6.76, 6.46, 5.88, 6.01, 7.13]

###

# studySystem: PDE9 (Homo sapiens (Human))
# Sequence (O76083 whole entry): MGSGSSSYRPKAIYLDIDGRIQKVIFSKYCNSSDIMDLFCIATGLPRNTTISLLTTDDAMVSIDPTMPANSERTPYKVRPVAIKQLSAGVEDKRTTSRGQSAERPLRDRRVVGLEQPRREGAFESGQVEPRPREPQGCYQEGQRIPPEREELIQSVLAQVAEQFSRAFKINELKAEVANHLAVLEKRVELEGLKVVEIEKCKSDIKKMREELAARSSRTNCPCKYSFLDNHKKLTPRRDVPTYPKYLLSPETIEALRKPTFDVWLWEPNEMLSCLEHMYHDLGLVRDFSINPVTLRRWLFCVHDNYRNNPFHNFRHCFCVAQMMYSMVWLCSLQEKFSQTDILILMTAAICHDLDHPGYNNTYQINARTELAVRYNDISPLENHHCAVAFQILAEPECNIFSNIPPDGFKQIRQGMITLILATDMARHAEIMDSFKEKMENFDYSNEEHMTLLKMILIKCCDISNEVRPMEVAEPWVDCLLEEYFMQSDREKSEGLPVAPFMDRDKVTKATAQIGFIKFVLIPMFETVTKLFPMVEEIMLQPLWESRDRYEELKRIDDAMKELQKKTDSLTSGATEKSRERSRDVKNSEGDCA
# method: PDE9 inhibition assay, SPA;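 note: enzyme reaction incubated for 1 h, then stopped by adding yttrium silicate scintillation proximity beads for the read-out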
# Assay type: biochemical
# conditionDetails: 10 microM compound; 10 nM 3H-cAMP
Kind request: treat 10% as inclusive, so inhibition at 10 µM at 10% or higher is true (1), anything lower is false (0).

Past entries and their recorded results:
molecule: Cc1cc2c(cnn2C2CCOCC2)c(=O)n1Cc1ccccc1F
assignedClass: true (1)

molecule: CCCn1ncc2c(=O)n(Cc3ccc(OC)cc3)c(C)nc21
assignedClass: true (1)

molecule: COc1ccc(Cn2c(C)cc3c(cnn3[C@@H]3CCO[C@H]3C)c2=O)cc1 (relative stereo)
assignedClass: false (0)

molecule: Cc1cc2c(cnn2C2CCOCC2)c(=O)n1Cc1cccc(F)c1
assignedClass: false (0)

Attention now shifts to the item below.
Q: Kindly determine if inhibition at 10 µM recorded for Cc1cc2c(cnn2C2CCOCC2)c(=O)n1Cc1ccccc1 is above or exactly 10%.
Result: false (0)

###

These compounds were tested on PDE1B (Homo sapiens (Human)); pIC50 is the recorded read-out.
Give bare numbers, as −log10 of the molar value.

Consider the worked cases shown below.
compound: COc1ccc(Cn2c(C)cc3c(cnn3C3COC3)c2=O)cc1 [Example 28]
pIC50: 6.15
//
compound: CCCn1ncc2c(=O)n(CC3CCCCC3)c(C)nc21 [Example 5]
pIC50: 7.51
//
compound: COc1ccc(Cn2c(CC3COC3)nc3c(cnn3C3CCOCC3)c2=O)cc1 [Example 9]
pIC50: 7.24
//
compound: CCc1nc2c(cnn2C2CCOCC2)c(=O)n1Cc1ccc(OC)cc1 [Example 6]
pIC50: 7.10
//
compound: Cc1ccc(Cn2c(C)cc3c(cnn3C3CCOCC3)c2=O)cc1 [Example 16]
pIC50: 7.15
//
compound: Cc1cc2c(cnn2C2CCOCC2)c(=O)n1Cc1ccc2c(c1)OCO2 [Example 17]
pIC50: 6.81
//
compound: CCCn1ncc2c(=O)n(Cc3ccc(OC)cc3)c(C)nc21 [Example 4]
pIC50: 7.17

Read the next record carefully.
Q: In one line, give reported pIC50 of the entry COc1ccc(Cn2c(C)cc3c(cnn3C3(C)CCOCC3)c2=O)cc1 [Example 29] .
Result: 7.06

###

# studySystem: UniProtKB Q14123
measurementLabel: pIC50
Answers are plain numbers, as −log10 of the molar value.

Consider the worked cases shown below.
compound: COc1ccc(Cn2c(CC3COC3)nc3c(cnn3C3CCOCC3)c2=O)cc1 [Example 9]
pIC50: 6.78
//
compound: Cc1cc2c(cnn2C2CCOCC2)c(=O)n1Cc1ccc2c(c1)OCO2 [Example 17]
pIC50: 6.18
//
compound: COc1ccc(Cn2c(C)cc3c(cnn3[C@@H]3CCO[C@@H]3C)c2=O)cc1 (relative stereo) [Example 27]
pIC50: 6.16

Read the next record carefully.
Q: Identify measured pIC50 obtained with UniProtKB Q14123 for Cc1cc2c(cnn2C2CCOCC2)c(=O)n1Cc1ccccc1F [Example 11] .
Result: 7.21

###

# studySystem: PDE1A (Homo sapiens (Human), UniProt P54750)
Would you mind telling me the reported pIC50 of each entry?
One number for each entry, as −log10 of the molar value.

Consider the worked cases shown below.
compound: Cc1ccc(Cn2c(C)cc3c(cnn3C3CCOCC3)c2=O)cc1
studySystem: PDE1A (Homo sapiens (Human), UniProt P54750)
measurementLabel: pIC50
measuredValue: 6.40
//
compound: Cc1cc2c(cnn2C2CCOCC2)c(=O)n1Cc1ccc(F)cc1
studySystem: PDE1A (Homo sapiens (Human), UniProt P54750)
measurementLabel: pIC50
measuredValue: 5.91
//
compound: COc1ccc(Cn2c(C)cc3c(cnn3[C@@H]3CCO[C@H]3C)c2=O)cc1 (relative stereo)
studySystem: PDE1A (Homo sapiens (Human), UniProt P54750)
measurementLabel: pIC50
measuredValue: 6.69
//
compound: COc1ccc(Cn2c(C)cc3c(cnn3[C@@H]3CCO[C@@H]3C)c2=O)cc1 (relative stereo)
studySystem: PDE1A (Homo sapiens (Human), UniProt P54750)
measurementLabel: pIC50
measuredValue: 5.89
//
compound: COc1ccc(Cn2c(C)cc3c(cnn3C3CCOCC3)c2=O)cc1
studySystem: PDE1A (Homo sapiens (Human), UniProt P54750)
measurementLabel: pIC50
measuredValue: 6.74

Please state, for each entry, its recorded pIC50.
1. Cc1cc2c(cnn2C2CCOCC2)c(=O)n1Cc1cccc(Cl)c1
2. CCCn1ncc2c(=O)n(CC3CCCCC3)c(C)nc21

Result:
[5.89, 6.95]
